- TARGET_OR_SYSTEM: AChBP (Ac) (Aplysia californica)
- EXPERIMENTAL_PROTOCOL: biochemical
- Assay type: binding
QUANTITY_MEASURED: pKd
The meaning of pKd here: minus log10 of the concentration in molar units.

State its pKd: c1ccc2c(CN3CCN(Cc4c[nH]c5ccccc45)CC3)c[nH]c2c1 [NSC42258]
5.54

====

- TARGET_OR_SYSTEM: AChBP (Ls) (Lymnaea stagnalis, UniProt P58154)
- Sequence (P58154 20-229): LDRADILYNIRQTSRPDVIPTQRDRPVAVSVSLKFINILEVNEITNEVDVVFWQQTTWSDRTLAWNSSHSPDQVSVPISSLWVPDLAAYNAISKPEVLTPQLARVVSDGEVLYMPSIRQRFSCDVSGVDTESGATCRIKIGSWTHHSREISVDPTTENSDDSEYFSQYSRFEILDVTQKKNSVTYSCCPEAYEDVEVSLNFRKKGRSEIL
- Type: binding
- ASSAY_SETUP: read-out: Kd, [125I]α-Bungarotoxin
Catalogue of pKd readings, one per entry.
The meaning of pKd here: minus log10 of the concentration in molar units.

COMPOUND	RECORDED_NUMBER
COc1cc2c(cc1OC)C13CCN4CC5=CCOC(CC(=O)O)C(C5CC41)C3N2 (centres unmarked)	7.12

Next item in the queue.
State its pKd: N#Cc1ccc(/C=C/C(=O)O)cc1
6.39
